Measured values drawn from patent US20240368177A1 for this set.

- Tested on: HCT116-MTAP-KO
- ASSAY_SUMMARY: Cell killing in HCT116 isogenic pair (Cell Titer-Glo viability), MTAP knock-out cells
- Assay type: cell-based, human
- EXPERIMENTAL_PARAMETERS: Homo sapiens, HCT-116, 144 h, 6 days incubation, 0-10 μM, * = more than 50% viability inhibition at tested concentration without a full curve

STRUCTURE_STRING	IC50
C[C@H](c1ccc(Br)cc1F)N(C)C(=O)c1cc2nc(N)c3c(c2[nH]1)CO[C@@H]3C	12 nM
CN(C(=O)c1cc2nc(N)c3c(c2[nH]1)COC3)[C@H]1COCc2cc(C(F)(F)F)ccc21	1170 nM
CCN(C(=O)c1cc2nc(N)c3c(c2[nH]1)COC3)[C@H](C)c1ccc(C(F)(F)F)cc1F	26 nM
CCN(C(=O)c1cc2nc(N)c3c(c2[nH]1)COC3)[C@H](C)c1ccc(C2CC2)cc1F	74 nM
CN(C(=O)c1cc2nc(N)c3c(c2[nH]1)COC3)[C@@H]1COCc2cc(C3CC3)cc(F)c21	18 nM
CCN(C(=O)c1cc2nc(N)c3c(c2[nH]1)COC3)[C@H](C)c1ccc(Br)cc1F	13 nM

---

- System: HCT116-MTAP-KO
- ASSAY_SUMMARY: Cell killing in HCT116 isogenic pair (Cell Titer-Glo viability), MTAP knock-out cells
- Assay type: cell-based, human
- EXPERIMENTAL_PARAMETERS: Homo sapiens, HCT-116, 144 h, 6 days incubation, 0-10 μM, * = more than 50% viability inhibition at tested concentration without a full curve
Quick rule for you: IC50 under 10 nM gets T, anything else gets F.

STRUCTURE_STRING	ASSIGNED_CATEGORY
CN(C(=O)c1cc2nc(N)c3c(c2[nH]1)COC3)[C@@H]1COCc2cc(C(F)(F)F)ccc21	F
Cc1cc([C@H](C)N(C)C(=O)c2cc3nc(N)c4c(c3[nH]2)COC4)c(F)cc1C1CC1	F
CCN(C(=O)c1cc2nc(N)c3c(c2[nH]1)COC3)[C@H](C)c1ncc(C(F)(F)F)cc1F	F
Nc1nc2cc(C(=O)N(Cc3ccc(-c4ccncc4)cn3)Cc3c(F)cccc3F)[nH]c2c2c1COC2	T
C[C@@H]1OC[C@@H](N(C)C(=O)c2cc3nc(N)c4c(c3[nH]2)COC4)c2ccc(C(F)(F)F)cc21	F
CN(C(=O)c1cc2nc(N)c3c(c2[nH]1)COC3)[C@@H]1CCOc2cc(C(F)(F)F)ccc21	F
